assay: Inhibition of baker's yeast alpha-glucosidase using p-nitrophenyl-alpha-D-glucopyranoside as substrate after 30 mins by spectrophotometric analysis; set-up: species or system Saccharomyces cerevisiae
pIC50: −log10 of the molar value.
Reported pIC50 is given for each of the following molecules.

Known pIC50 results, listed for orientation:
molecule=CC(C)=CCC/C(C)=C/Cc1cc(C(=O)/C=C/c2ccc(O)cc2)c(O)c(C/C=C(\C)CCC=C(C)C)c1O reading=6.05
molecule=COc1ccc(-c2coc3c(CC=C(C)C)c(OC)cc(O)c3c2=O)cc1 reading="< 4.00"
molecule="O=c1c(O)c(-c2ccc(O)c(O)c2)oc2cc(O)cc(O)c12 [QUERCETIN]" reading=4.96
molecule="O=C(/C=C/c1ccc(O)cc1)c1ccc(O)cc1O [ISOLIQUIRITIGENIN]" reading="< 4.00"
molecule=COc1ccc(/C=C/C(=O)c2cc(CC=C(C)C)c(OC)cc2OC)cc1 reading="< 4.00"

Documented pIC50 of COc1ccc(-c2coc3c(C/C=C(\C)CCC=C(C)C)c(OC)cc(OC)c3c2=O)cc1 : < 4.00

Documented pIC50 of COc1ccc(-c2coc3c(C/C=C(\C)CCC=C(C)C)c(OC)cc(O)c3c2=O)cc1 : < 4.00

Documented pIC50 of CC(C)=CCc1c(O)cc(O)c2c(=O)c(-c3ccc(O)cc3)coc12 : < 4.00

Documented pIC50 of COc1ccc(-c2coc3c(CC=C(C)C)c(OC)cc(OC)c3c2=O)cc1 : < 4.00
